Test system: Sindbis virus
test.protocol: Antiviral activity against Simbidis virus infected in african green monkey Vero cells assessed as inhibition of virus-induced cytopathic effect after 3 days by MTS assay
Format: functional, organism-based
Activity calls are given as the source filed them. The rule behind the calls is not given here.
endpoint: inhibition

O=C(/C=C/c1ccccc1)N/N=C/c1ccccc1Cl inactive
CCCCCCCCCCCCCC(=O)N/N=C/c1ccccc1Cl inactive
COc1cc(OC)cc(C(=O)N/N=C/c2ccccc2)c1 inactive
C/C=C/C=C/C(=O)N/N=C/c1ccccc1 inactive
Cc1cccc(C(=O)N/N=C/c2ccccc2Cl)c1 inactive

Under Sindbis virus: inhibition value of CCCCCCCCCCCCCCCC(=O)N/N=C/c1ccccc1Cl ?
inactive

GET /values?readout=inhibition&system=Sindbis virus&item= CCCCCCCCCCCCCCCCCC(=O)N/N=C/c1ccccc1Cl
inactive

Form entry - test system: Sindbis virus; read-out: inhibition; compound: C/C=C/C=C/C(=O)N/N=C/c1ccccc1Cl
inactive

Give Sindbis virus inhibition for Cc1ccc(C(=O)N/N=C/c2ccccc2)cc1
inactive

Field: inhibition (Sindbis virus). Entry: CCCCCCCCCCCCCC(=O)N/N=C/c1ccccc1
inactive

Notebook entry, Sindbis virus assay: inhibition of CCCCCCCCCCCC(=O)N/N=C/c1ccccc1Cl = ?
inactive

Find the measured inhibition: item O=C(N/N=C/c1ccccc1)c1cc([N+](=O)[O-])cc([N+](=O)[O-])c1 , target or system Sindbis virus.
inactive

Observed inhibition on Sindbis virus for COc1cc(OC)cc(C(=O)N/N=C/c2ccccc2Cl)c1 , please.
inactive

Please provide the recorded inhibition for O=C(N/N=C/c1ccccc1Cl)c1cc([N+](=O)[O-])cc([N+](=O)[O-])c1 , tested on Sindbis virus.
inactive

Give Sindbis virus inhibition for Cc1ccc(C(=O)N/N=C/c2ccccc2Cl)cc1
inactive

Write down the reported inhibition of CCCCCCCCCCCCCCCCCC(=O)N/N=C/c1ccccc1 , test system: Sindbis virus.
inactive

API: value(readout= inhibition, system= Sindbis virus, query= CCCCCCCCCCCCCCCC(=O)N/N=C/c1ccccc1 )
inactive

What reported inhibition corresponds to CCCCCCCCCCCC(=O)N/N=C/c1ccccc1 on Sindbis virus?
inactive

Give inhibition (Sindbis virus) of the following compound: O=C(/C=C/c1ccccc1)N/N=C/c1ccccc1
inactive

Form field: inhibition recorded for Cc1cccc(C(=O)N/N=C/c2ccccc2)c1 with Sindbis virus (enter value)
inactive

---

Assign MCC at 72 h to each entry below.
test.protocol: Cytotoxicity against human HeLa cells after 3 days by MTS assay
Assay type: cell-based
recorded.conditions: HeLa cells
Expressed in µg/mL, but write only the number.

For the molecule shown here, COc1cc(OC)cc(C(=O)N/N=C/c2ccccc2)c1 , give the reported MCC at 72 h.
100

Would you kindly share the measured MCC at 72 h for COc1cc(OC)cc(C(=O)N/N=C/c2ccccc2Cl)c1 ?
100

---

Field: MBC. Provide a value for each of the compounds that follow.
Tested on: Staphylococcus aureus
test.protocol: Antibacterial activity against Staphylococcus aureus after 24 hrs by serial dilution method
Type: functional

# input compound: O=C(/C=C/c1ccccc1)N/N=C/c1ccccc1 ; wanted: its MBC
>0.2 uM/ml

Value lookup for MBC; key = CCCCCCCCCCCCCC(=O)N/N=C/c1ccccc1Cl
>0.137 uM/ml

Please look up its MBC: CCCCCCCCCCCCCC(=O)N/N=C/c1ccccc1
>0.152 uM/ml

Name the recorded MBC for C/C=C/C=C/C(=O)N/N=C/c1ccccc1Cl .
>0.201 uM/ml

Need MBC, item CCCCCCCCCCCCCCCC(=O)N/N=C/c1ccccc1
>0.139 uM/ml

Param item = Cc1ccc(C(=O)N/N=C/c2ccccc2Cl)cc1 ; retrieve measured MBC.
0.045 uM/ml

Tell me the measured MBC of COc1cc(OC)cc(C(=O)N/N=C/c2ccccc2Cl)c1 , please.
>0.157 uM/ml

Cited source: ChEMBL document CHEMBL1177846
